- Assay target: T1, recombinant soluble extracellular domain (ECD) of PD-1 (R&D Systems) (UniProt Q15116 25-170)
- T1 construct: extracellular domain; also called PD-1 ECD
- T1 sequence (Q15116 25-170): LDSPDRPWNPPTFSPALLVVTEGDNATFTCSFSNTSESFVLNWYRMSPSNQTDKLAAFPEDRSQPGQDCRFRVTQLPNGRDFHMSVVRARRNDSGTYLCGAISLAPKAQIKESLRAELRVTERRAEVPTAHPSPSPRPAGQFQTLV
- Test description: ELISA, PD-1 ECD coated on the plate, antibody titrated from about 0.003 to about 13 nM, OD 450 nm
Measured quantity: EC50 (read off the curve)

Worked examples follow.
[[record]]
binder = "100246_A10VH1_100247_A10VK3 (antibody, V domains shown, Mouse variable regions; cloned into pFUSE-CHIg-mG1 (murine IgG1 Fc), expressed in HEK293) VH: EVQLQESGPGLVKPSQSLSLTCTVTGYSITSDYAWNWIRQFPGNKLEWMGYITYSGSPTYNPSLKSQFSITRDTSKNQFFLQLNSLTTEDTATYYCARGLGGHYFDYWGQGTTLTVSS VL: DIVLTQSPDTLSVTPGDRVSLSCRASQSISDYLHWYQQKSHESPRLLIKYASQSISGIPSRFSGSGSGSDFTLSINSVEPEDVGVYYCQNGHSYPYTFGGGTKLELK"
measured_quantity = "EC50 (read off the curve)"
value = "~0.04 nM"

[[record]]
binder = "100244_C8VH3_100245_C8VK5 (antibody, V domains shown, Mouse variable regions; cloned into pFUSE-CHIg-mG1 (murine IgG1 Fc), expressed in HEK293) VH: EVQLQESGPELVRPGASVKMSCKASGYTFTSYWMHWVKQRPGQGLEWIGMIDPSNSETSLNQKFKDKATLNVDKSTNTAYMQLSSLTSEDSAVYYCARSRGNYAYEMDYWGQGTSVTVSS VL: DIVITQTTAIMSASPGEKVTLTCSASSSVSSNYLYWYQQRPGSSPKLWIYSTSNLASGVPARFSGSGSGTSYSLTISSMEAEDAASYFCHQWSSYPPTFGSGTKLEIK"
measured_quantity = "EC50 (read off the curve)"
value = "~0.03 nM"

[[record]]
binder = "100413_E1VH9_100414_E1VK5 (antibody, V domains shown, Mouse variable regions; cloned into pFUSE-CHIg-mG1 (murine IgG1 Fc), expressed in HEK293) VH: EVQLQESGPSLVQPSQSLSITCTVSGFSLTSYGVHWVRQSPGKGLEWLGVIWRGGNTDYNAAFMSRLSITKDNSKSQVFFKMNSLQADDTAIYYCAASMIGGYWGQGTTLTVSS VL: DIVLTQTPLSLPVSLGDQASISCRSSQSIVHSNGNTYLEWYLQKPGQSPKLLIYKVSNRFSGVPDRFSGSGSGTNFTLKISRVEAEDLGVYYCFQGSHVPLTFGAGTKLELK"
measured_quantity = "EC50 (read off the curve)"
value = "~0.06 nM"


Could you now look at the following binder, please?
Reported EC50 (read off the curve) of 100388_D4VH3_100389_D4VK5 (antibody, V domains shown, Mouse variable regions; cloned into pFUSE-CHIg-mG1 (murine IgG1 Fc), expressed in HEK293) VH: EVQLQESGAELVRPGASVTLSCKASGYTFTDYEMHWVKQTPVHGLEWIGVIDPGTGGTAYNQKFKVKALLTADKSSNTAYMELRSLTSEDSAVYYCTSEKFGSNYYFDYWGQGTTLTVSS VL: DIVITQTPLSLPVSLGDQASISCRSSQTIVHSDGNTYLEWYLQKPGQSPKLLIYKVSNRFSGVPDRFSGSGSGTDFTLKISRVEAEDLGVYYCFQGSHVPLTFGAGTKLEIK : ~0.05 nM
